# System: pS6K1 T389 and pAkt S473 in PC3 cells
# method.summary: Western blot based pS6K1 and pAKT assay at 24 and 48 hour timepoints
# Format: cell-based
readout.type: mTORC1 selective @ 24 hrs

Recorded results for 10 compounds are shown here.
# compound, mTORC1 selective @ 24 hrs
records = [
    ("COCCO[C@@H]1CC[C@@H](C[C@@H](C)[C@@H]2CC(=O)[C@H](C)/C=C(\\C)[C@@H](O)[C@@H](OC)C(=O)[C@H](C)C[C@H](C)/C=C/C=C/C=C(\\C)[C@@H](OCc3cnccn3)C[C@@H]3CC[C@@H](C)[C@@](O)(O3)C(=O)C(=O)N3CCCC[C@H]3C(=O)O2)C[C@H]1OC", "Yes"),
    ("CO[C@@H]1/C(C)=C/[C@@H](C)C(=O)C[C@@H]([C@H](C)C[C@@H]2CC[C@@H](OP(C)(C)=O)[C@H](OC)C2)OC(=O)[C@@H]2CCCCN2C(=O)C(=O)[C@]2(O)O[C@@H](CC[C@H]2C)C[C@H](OCCOC2CCOCC2)/C(C)=C/C=C/C=C/[C@@H](C)C[C@@H](C)C(=O)[C@@H]1OC", "No"),
    ("COCCOCCO[C@H]1C[C@@H]2CC[C@@H](C)[C@@](O)(O2)C(=O)C(=O)N2CCCC[C@H]2C(=O)O[C@H]([C@H](C)C[C@@H]2CC[C@@H](O)[C@H](OC)C2)CC(=O)[C@H](C)/C=C(\\C)[C@@H](OC)[C@@H](OC)C(=O)[C@H](C)C[C@H](C)/C=C/C=C/C=C/1C", "Yes"),
    ("COCCOCCO[C@H]1C[C@@H]2CC[C@@H](C)[C@@](O)(O2)C(=O)C(=O)N2CCCC[C@H]2C(=O)O[C@H]([C@H](C)C[C@@H]2CC[C@@H](OP(C)(C)=O)[C@H](OC)C2)CC(=O)[C@H](C)/C=C(\\C)[C@@H](OC)[C@@H](OC)C(=O)[C@H](C)C[C@H](C)/C=C/C=C/C=C/1C", "Yes"),
    ("CO[C@@H]1/C(C)=C/[C@@H](C)C(=O)C[C@@H]([C@H](C)C[C@@H]2CC[C@@H](OCCO)[C@H](OC)C2)OC(=O)[C@@H]2CCCCN2C(=O)C(=O)[C@]2(O)O[C@@H](CC[C@H]2C)C[C@H](OCCOCCOC2COC2)/C(C)=C/C=C/C=C/[C@@H](C)C[C@@H](C)C(=O)[C@@H]1OC", "No"),
    ("COCCO[C@@H]1CC[C@@H](C[C@@H](C)[C@@H]2CC(=O)[C@H](C)/C=C(\\C)[C@@H](OC)[C@@H](OC)C(=O)[C@H](C)C[C@H](C)/C=C/C=C/C=C(\\C)[C@@H](OCCOCCOC3COC3)C[C@@H]3CC[C@@H](C)[C@@](O)(O3)C(=O)C(=O)N3CCCC[C@H]3C(=O)O2)C[C@H]1OC", "No"),
    ("COCCO[C@@H]1CC[C@@H](C[C@@H](C)[C@@H]2CC(=O)[C@H](C)/C=C(\\C)[C@@H](O)[C@@H](OC)C(=O)[C@H](C)C[C@H](C)/C=C/C=C/C=C(\\C)[C@@H](OC[C@@H]3COCCO3)C[C@@H]3CC[C@@H](C)[C@@](O)(O3)C(=O)C(=O)N3CCCC[C@H]3C(=O)O2)C[C@H]1OC", "Yes"),
    ("COCCOCCO[C@H]1C[C@@H]2CC[C@@H](C)[C@@](O)(O2)C(=O)C(=O)N2CCCC[C@H]2C(=O)O[C@H]([C@H](C)C[C@@H]2CC[C@@H](OCCO)[C@H](OC)C2)CC(=O)[C@H](C)/C=C(\\C)[C@@H](OC)[C@@H](OC)C(=O)[C@H](C)C[C@H](C)/C=C/C=C/C=C/1C", "Yes"),
    ("CO[C@@H]1C[C@H](C[C@@H](C)[C@@H]2CC(=O)[C@H](C)/C=C(\\C)[C@@H](O)[C@@H](OC)C(=O)[C@H](C)C[C@H](C)/C=C/C=C/C=C(\\C)[C@@H](OCC3COCCO3)C[C@@H]3CC[C@@H](C)[C@@](O)(O3)C(=O)C(=O)N3CCCC[C@H]3C(=O)O2)CC[C@H]1OC(F)F (stereo partly shown)", "Yes"),
    ("COCCOCCO[C@H]1C[C@@H]2CC[C@@H](C)[C@@](O)(O2)C(=O)C(=O)N2CCCC[C@H]2C(=O)O[C@H]([C@H](C)C[C@@H]2CC[C@@H](OC)[C@H](OC)C2)CC(=O)[C@H](C)/C=C(\\C)[C@@H](OC)[C@@H](OC)C(=O)[C@H](C)C[C@H](C)/C=C/C=C/C=C/1C", "Yes"),
]

Here are 3 compounds. What values of mTORC1 selective @ 24 hrs were reported for them?
1. CO[C@@H]1C[C@H](C[C@@H](C)[C@@H]2CC(=O)[C@H](C)/C=C(\C)[C@@H](O)[C@@H](OC)C(=O)[C@H](C)C[C@H](C)/C=C/C=C/C=C(\C)[C@@H](OCCOC3COC3)C[C@@H]3CC[C@@H](C)[C@@](O)(O3)C(=O)C(=O)N3CCCC[C@H]3C(=O)O2)CC[C@H]1OC(=O)NCCN1CCOCC1
2. CO[C@@H]1C[C@H](C[C@@H](C)[C@@H]2CC(=O)[C@H](C)/C=C(\C)[C@@H](O)[C@@H](OC)C(=O)[C@H](C)C[C@H](C)/C=C/C=C/C=C(\C)[C@@H](OCc3cnccn3)C[C@@H]3CC[C@@H](C)[C@@](O)(O3)C(=O)C(=O)N3CCCC[C@H]3C(=O)O2)CC[C@H]1OCCO
3. COCCO[C@@H]1CC[C@@H](C[C@@H](C)[C@@H]2CC(=O)[C@H](C)/C=C(\C)[C@@H](O)[C@@H](OC)C(=O)[C@H](C)C[C@H](C)/C=C/C=C/C=C(\C)[C@@H](OC[C@H]3COCCO3)C[C@@H]3CC[C@@H](C)[C@@](O)(O3)C(=O)C(=O)N3CCCC[C@H]3C(=O)O2)C[C@H]1OC

# output
["Yes", "Yes", "Yes"]
